- System: Hepatotoxicity
- Test protocol: FDA HLAED, liver enzyme composite activity
- Setup conditions: human
Quantity measured: Composite Activity - Score

// below: answered compounds
Any idea what its Composite Activity - Score is? The compound is "Nc1ccn(C[C@@H](CO)OCP(=O)(O)O)c(=O)n1.O.O"
Inactive

Any idea what its Composite Activity - Score is? The compound is "CCOC(=O)[C@H](CCc1ccccc1)N[C@@H](C)C(=O)N1Cc2ccccc2C[C@H]1C(=O)O"
Inactive

Any idea what its Composite Activity - Score is? The compound is O=[N+]([O-])O[C@@H]1CO[C@H]2[C@@H]1OC[C@@H]2O [ISOSORBIDE MONONITRATE]
Inactive

Any idea what its Composite Activity - Score is? The compound is "CC[C@H]1OC(=O)[C@H](C)[C@@H](O[C@H]2C[C@@](C)(OC)[C@@H](O)[C@H](C)O2)[C@H](C)[C@@H](O[C@@H]2O[C@H](C)C[C@H](N(C)C)[C@H]2O)[C@](C)(O)C[C@@H](C)C(=O)[C@H](C)[C@@H](O)[C@]1(C)O"
Active

Any idea what its Composite Activity - Score is? The compound is "NNC(=O)c1ccncc1"
Active

Items follow; give Composite Activity - Score for each.
1. O=c1[nH]cnc2c1ncn2[C@H]1CC[C@@H](CO)O1
2. Cc1nnc2n1-c1ccc(Cl)cc1C(c1ccccc1)=NC2
3. NCCC(O)(P(=O)(O)O)P(=O)(O)O

1: Active; 2: Inactive; 3: Active

Items follow; give Composite Activity - Score for each.
1. COc1cc2c(cc1OC)[C@@H](Cc1cc(OC)c(OC)c(OC)c1)[N+](C)(CCCOC(=O)CC/C=C/CCC(=O)OCCC[N+]1(C)CCc3cc(OC)c(OC)cc3[C@H]1Cc1cc(OC)c(OC)c(OC)c1)CC2.[Cl-].[Cl-] (stereo partly specified) [MIVACURIUM CHLORIDE]
2. CC(=O)O[C@@]12CO[C@@H]1C[C@H](O)[C@@]1(C)C(=O)[C@H](O)C3=C(C)[C@@H](OC(=O)[C@H](O)[C@@H](NC(=O)OC(C)(C)C)c4ccccc4)C[C@@](O)([C@@H](OC(=O)c4ccccc4)[C@H]21)C3(C)C.O.O.O
3. CC=CC1=C(C(=O)O)N2C(=O)[C@@H](NC(=O)[C@H](N)c3ccc(O)cc3)[C@H]2SC1
4. Cc1c(OCC(F)(F)F)ccnc1C[S+]([O-])c1nc2ccccc2[nH]1 (stereo unspecified)
5. COC(=O)C1=C(C)NC(C)=C(C(=O)OC)C1c1ccccc1[N+](=O)[O-]
6. Cc1cn([C@H]2C=C[C@@H](CO)O2)c(=O)[nH]c1=O
7. COC(=O)CCc1ccc(OCC(O)CNC(C)C)cc1 (stereo unspecified)
8. CCCCCCCCCCCCCCCCCC(=O)O.CC[C@H]1OC(=O)[C@H](C)[C@@H](O[C@H]2C[C@@](C)(OC)[C@@H](O)[C@H](C)O2)[C@H](C)[C@@H](O[C@@H]2O[C@H](C)C[C@H](N(C)C)[C@H]2OC(C)=O)[C@](C)(O)C[C@@H](C)C(=O)[C@H](C)[C@@H](O)[C@]1(C)O [ERYTHROMYCIN ACISTRATE]

1. Inactive
2. Inactive
3. Inactive
4. Inactive
5. Inactive
6. Active
7. Inactive
8. Active

Data provenance is ChEMBL document CHEMBL1697781.
